The following compounds have recorded IC50 on KDR (baculovirus expressed human KDR kinase domain D807-V1356) (Homo sapiens).
Sequence (P35968 807-1356): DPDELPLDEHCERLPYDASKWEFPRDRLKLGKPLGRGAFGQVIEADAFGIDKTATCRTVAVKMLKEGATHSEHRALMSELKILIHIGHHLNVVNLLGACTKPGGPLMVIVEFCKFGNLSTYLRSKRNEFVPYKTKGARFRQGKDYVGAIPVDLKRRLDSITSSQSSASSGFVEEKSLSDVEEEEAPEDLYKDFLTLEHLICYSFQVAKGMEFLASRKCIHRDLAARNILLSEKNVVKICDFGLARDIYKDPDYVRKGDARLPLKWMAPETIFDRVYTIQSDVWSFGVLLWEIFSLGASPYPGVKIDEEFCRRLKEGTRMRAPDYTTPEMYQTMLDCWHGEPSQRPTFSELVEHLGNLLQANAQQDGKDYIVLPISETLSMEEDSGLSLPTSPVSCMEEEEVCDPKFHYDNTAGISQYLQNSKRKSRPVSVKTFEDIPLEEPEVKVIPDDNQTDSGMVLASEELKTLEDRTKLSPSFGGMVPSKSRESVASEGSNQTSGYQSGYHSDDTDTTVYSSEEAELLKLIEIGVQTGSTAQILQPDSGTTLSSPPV

>  <compound>
CCN1CCC(Nc2ccc3c(c2)/C(=C(\c2cc(F)cc(F)c2)c2nc4cc(F)ccc4[nH]2)C(=O)N3)CC1 [Entry 62]

>  <IC50>
< 50 nM

$$$$
>  <compound>
O=C1Nc2ccc(NC3CCN(CCN4CCCCC4)CC3)cc2/C1=C(\c1cccc(F)c1)c1ncc[nH]1 [Entry 82]

>  <IC50>
50 to 500 nM

$$$$
>  <compound>
CS(=O)(=O)N1CCC(Nc2ccc3c(c2)/C(=C(\c2ccccc2)c2nc4ccccc4[nH]2)C(=O)N3)CC1 [Entry 30]

>  <IC50>
50 to 500 nM

$$$$
>  <compound>
CCN1CCC(Nc2ccc3c(c2)/C(=C(\c2ccc(C)c(F)c2)c2nc(C)c[nH]2)C(=O)N3)CC1 [Entry 67]

>  <IC50>
< 50 nM

$$$$
>  <compound>
COCCN1CCC(Nc2ccc3c(c2)/C(=C(\c2ccc(C)c(F)c2)c2ncc[nH]2)C(=O)N3)CC1 [Entry 63]

>  <IC50>
< 50 nM

$$$$
>  <compound>
CCN1CCC(N(C)c2ccc3c(c2)/C(=C(\c2cccc(Cl)c2)c2nc4ccccc4[nH]2)C(=O)N3)CC1 [Entry 43]

>  <IC50>
< 50 nM

$$$$
>  <compound>
CCN1CCC(Nc2ccc3c(c2)/C(=C(\c2cccc(Cl)c2)c2nc4ccccc4[nH]2)C(=O)N3)CC1 [Entry 27]

>  <IC50>
< 50 nM

$$$$
>  <compound>
CCN1CCC(Nc2ccc3c(c2)/C(=C(\c2ccc(OC)cc2)c2nc4cc(OC)ccc4[nH]2)C(=O)N3)CC1 [Entry 5]

>  <IC50>
< 50 nM

$$$$
>  <compound>
CCN1CCC(Nc2ccc3c(c2)/C(=C(\c2ccc(F)c(Cl)c2)c2nc(C)c[nH]2)C(=O)N3)CC1 [Entry 105]

>  <IC50>
< 50 nM

$$$$
>  <compound>
CCCc1ccc(/C(=C2/C(=O)Nc3ccc(NC4CCN(CC)CC4)cc32)c2ncc[nH]2)cc1 [Entry 59]

>  <IC50>
< 50 nM

$$$$
>  <compound>
CCN1CCC(Nc2ccc3c(c2)/C(=C(\c2ccc(C)c(F)c2)c2ncc[nH]2)C(=O)N3)CC1 [Entry 57]

>  <IC50>
< 50 nM

$$$$
>  <compound>
CS(=O)(=O)N1CCC(Nc2ccc3c(c2)/C(=C(\c2cccc(F)c2)c2ncc[nH]2)C(=O)N3)CC1 [Entry 93]

>  <IC50>
50 to 500 nM

$$$$
>  <compound>
COc1ccc2[nH]c(/C(=C3\C(=O)Nc4ccc(NC5CC(C)(C)NC(C)(C)C5)cc43)c3ccccc3)nc2c1 [Entry 10]

>  <IC50>
500 to 5000 nM

$$$$
>  <compound>
COCCN1CCC(Nc2ccc3c(c2)/C(=C(\c2ccc(C(F)(F)F)nc2)c2ncc[nH]2)C(=O)N3)CC1 [Entry 98]

>  <IC50>
50 to 500 nM

$$$$
>  <compound>
CCN1CCC(Oc2ccc3c(c2)/C(=C(\c2cccc(Cl)c2)c2ncc[nH]2)C(=O)N3)CC1 [Entry 44]

>  <IC50>
< 50 nM

$$$$

###

# assayed-system: EphA2 (Homo sapiens)
# Sequence (P29317 24-976, species assumed): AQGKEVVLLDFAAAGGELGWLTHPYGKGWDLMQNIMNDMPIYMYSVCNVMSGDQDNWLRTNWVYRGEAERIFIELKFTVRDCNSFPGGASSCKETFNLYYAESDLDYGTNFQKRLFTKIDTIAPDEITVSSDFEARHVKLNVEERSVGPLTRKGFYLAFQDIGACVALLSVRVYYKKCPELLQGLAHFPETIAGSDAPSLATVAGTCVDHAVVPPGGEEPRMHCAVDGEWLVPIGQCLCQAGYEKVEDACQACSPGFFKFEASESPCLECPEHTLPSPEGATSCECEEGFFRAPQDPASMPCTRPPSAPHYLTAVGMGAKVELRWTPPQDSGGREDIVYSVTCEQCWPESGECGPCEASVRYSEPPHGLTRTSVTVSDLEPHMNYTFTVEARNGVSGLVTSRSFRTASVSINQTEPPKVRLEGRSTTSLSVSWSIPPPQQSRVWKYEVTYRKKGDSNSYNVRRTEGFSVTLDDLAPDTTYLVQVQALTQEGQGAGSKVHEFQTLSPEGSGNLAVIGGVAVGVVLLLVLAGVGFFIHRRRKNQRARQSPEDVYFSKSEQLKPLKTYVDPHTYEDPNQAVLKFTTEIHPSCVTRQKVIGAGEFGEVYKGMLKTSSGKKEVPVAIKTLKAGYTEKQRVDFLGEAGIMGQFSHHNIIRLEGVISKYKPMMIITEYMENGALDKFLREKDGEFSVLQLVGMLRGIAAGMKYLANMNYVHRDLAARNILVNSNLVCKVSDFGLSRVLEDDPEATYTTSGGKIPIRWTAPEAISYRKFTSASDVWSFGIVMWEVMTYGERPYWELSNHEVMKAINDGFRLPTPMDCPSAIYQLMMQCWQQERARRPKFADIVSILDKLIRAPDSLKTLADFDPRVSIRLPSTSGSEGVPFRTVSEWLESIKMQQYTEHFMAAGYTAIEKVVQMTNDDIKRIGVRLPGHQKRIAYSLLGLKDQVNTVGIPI

>  <compound>
CCN1CCC(Nc2ccc3c(c2)/C(=C(\c2ccc(C)cc2)c2ncc[nH]2)C(=O)N3)CC1

>  <IC50>
50 to 500 nM

$$$$
>  <compound>
CCN1CCC(Nc2ccc3c(c2)/C(=C(\c2cc(F)cc(F)c2)c2ncc[nH]2)C(=O)N3)CC1

>  <IC50>
500 to 5000 nM

$$$$
>  <compound>
CCN1CCC(Nc2ccc3c(c2)/C(=C(\c2ccc(C)cc2)c2nc4cc(OC)ccc4[nH]2)C(=O)N3)CC1

>  <IC50>
500 to 5000 nM

$$$$
>  <compound>
COCCN1CCC(Nc2ccc3c(c2)/C(=C(\c2cc(F)cc(F)c2)c2nc(C)c[nH]2)C(=O)N3)CC1

>  <IC50>
500 to 5000 nM

$$$$
>  <compound>
O=C1Nc2ccc(NC3CC4CCC(C3)N4)cc2/C1=C(\c1ccccc1)c1nc2ccccc2[nH]1 (centres unmarked)

>  <IC50>
500 to 5000 nM

$$$$
>  <compound>
CCN1CCC(Oc2ccc3c(c2)/C(=C(\c2ccccc2)c2nc4cc(OC)ccc4[nH]2)C(=O)N3)CC1

>  <IC50>
500 to 5000 nM

$$$$
>  <compound>
CC1(C)CC(Nc2ccc3c(c2)/C(=C(\c2ccccc2)c2nc4ccccc4[nH]2)C(=O)N3)CC(C)(C)N1

>  <IC50>
500 to 5000 nM

$$$$
>  <compound>
O=C1Nc2ccc(NC3CCN(CCN4CCCCC4)CC3)cc2/C1=C(\c1cccc(F)c1)c1ncc[nH]1

>  <IC50>
500 to 5000 nM

$$$$
>  <compound>
CCCc1ccc(/C(=C2/C(=O)Nc3ccc(NC4CCN(CCOC)CC4)cc32)c2ncc[nH]2)cc1

>  <IC50>
500 to 5000 nM

$$$$
>  <compound>
CCN1CCC(Nc2ccc3c(c2)/C(=C(/c2nc(C)c[nH]2)c2ccc(C(F)(F)F)cc2F)C(=O)N3)CC1

>  <IC50>
500 to 5000 nM

$$$$
>  <compound>
COCCN1CCC(Nc2ccc3c(c2)/C(=C(\c2ccc(F)cc2)c2ncc[nH]2)C(=O)N3)CC1

>  <IC50>
500 to 5000 nM

$$$$
>  <compound>
CCN1CCC(Nc2ccc3c(c2)/C(=C(\c2cccc(C(=N)N)c2)c2nc4ccccc4[nH]2)C(=O)N3)CC1

>  <IC50>
500 to 5000 nM

$$$$
>  <compound>
COCCN1CCC(Nc2ccc3c(c2)/C(=C(\c2ccc(C)cc2)c2nc(C)c[nH]2)C(=O)N3)CC1

>  <IC50>
50 to 500 nM

$$$$
>  <compound>
COCCN1CCC(Nc2ccc3c(c2)/C(=C(\c2ccc(C)c(F)c2)c2ncc[nH]2)C(=O)N3)CC1

>  <IC50>
50 to 500 nM

$$$$
>  <compound>
CCN1CCC(Nc2ccc3c(c2)/C(=C(/c2nc(C)c[nH]2)c2ccc(F)cc2F)C(=O)N3)CC1

>  <IC50>
500 to 5000 nM

$$$$
>  <compound>
CCN1CCC(Nc2ccc3c(c2)/C(=C(/c2ncc[nH]2)c2cc(F)c(Cl)cc2Cl)C(=O)N3)CC1

>  <IC50>
500 to 5000 nM

$$$$
>  <compound>
COCCN1CCC(Nc2ccc3c(c2)/C(=C(\c2ccc(Cl)cc2)c2ncc[nH]2)C(=O)N3)CC1

>  <IC50>
500 to 5000 nM

$$$$
>  <compound>
CCN1CCC(Nc2ccc3c(c2)/C(=C(\c2ccc(C)c(F)c2)c2ncc[nH]2)C(=O)N3)CC1

>  <IC50>
50 to 500 nM

$$$$
>  <compound>
CCN1CCC(Nc2ccc3c(c2)/C(=C(\c2cccc([N+](=O)[O-])c2)c2nc4ccccc4[nH]2)C(=O)N3)CC1

>  <IC50>
500 to 5000 nM

$$$$
>  <compound>
COCCN1CCC(Nc2ccc3c(c2)/C(=C(\c2cccc(Cl)c2)c2nc4ccccc4[nH]2)C(=O)N3)CC1

>  <IC50>
500 to 5000 nM

$$$$
>  <compound>
CCN1CCC(Nc2ccc3c(c2)/C(=C(\c2ccc(C)c(F)c2)c2nc4ccccc4[nH]2)C(=O)N3)CC1

>  <IC50>
500 to 5000 nM

$$$$
>  <compound>
CCN1CCC(Nc2ccc3c(c2)/C(=C(/c2ncc[nH]2)c2ccc(F)cc2F)C(=O)N3)CC1

>  <IC50>
500 to 5000 nM

$$$$
>  <compound>
CCN1CCC(Nc2ccc3c(c2)/C(=C(\c2ccc(OC)cc2)c2nc4cc(OC)ccc4[nH]2)C(=O)N3)CC1

>  <IC50>
> 5000 nM

$$$$
>  <compound>
COCCN1CCC(Nc2ccc3c(c2)/C(=C(\c2cccc(F)c2)c2ncn[nH]2)C(=O)N3)CC1

>  <IC50>
> 5000 nM

$$$$
>  <compound>
CCN(CC)CCN1CCC(Nc2ccc3c(c2)/C(=C(\c2cccc(F)c2)c2ncc[nH]2)C(=O)N3)CC1

>  <IC50>
500 to 5000 nM

$$$$
>  <compound>
CCN1CCC(Nc2ccc3c(c2)/C(=C(\c2ccc(C(F)(F)F)nc2)c2ncc[nH]2)C(=O)N3)CC1

>  <IC50>
500 to 5000 nM

$$$$
>  <compound>
COCCN1CCC(Nc2ccc3c(c2)/C(=C(\c2ccc(OC)cc2)c2ncc[nH]2)C(=O)N3)CC1

>  <IC50>
500 to 5000 nM

$$$$
>  <compound>
COc1ccc2[nH]c(/C(=C3\C(=O)Nc4ccc(NC5CC(C)(C)NC(C)(C)C5)cc43)c3ccccc3)nc2c1

>  <IC50>
500 to 5000 nM

$$$$
>  <compound>
CCN1CCC(N(C)c2ccc3c(c2)/C(=C(\c2cccc(Cl)c2)c2nc4ccccc4[nH]2)C(=O)N3)CC1

>  <IC50>
500 to 5000 nM

$$$$
